Data origin: PubChem BioAssay (NCATS)

test: Quantitative High-Throughput drug screen in 47 multiple myeloma cell lines against the NCATS MIPE library collection: L363_DSMZ cell viability assay (AID 1918984); conditions: L363 myeloma viability, CellTiter-Glo ATP luminescence, 48 h; series mostly up to 45.8 µM; also: nearly all actives have a fitted effect of over 40% in size
Results filed as inconclusive are left out. The source made the active and inactive calls. Calls follow the shape of the dose curve; as a rule, active = well fitted cell-killing curve with a large enough effect; inconclusive = small, poorly fitted or top-dose-only effect, or effect the other way; inactive = no such curve, though single readings can be large or run the other way.
Outcomes: label 1 = active, label 0 = inactive

compound: Cc1nc(Nc2ncc(C(=O)Nc3c(C)cccc3Cl)s2)cc(N2CCN(CCO)CC2)n1
category.label: label 1
//
compound: O=C(CCc1ccc(O)cc1)c1c(O)cc(O)cc1O
category.label: label 1
//
compound: OC(CN1CCN(c2cccc(Cl)c2)CC1)C(c1ccccc1)c1ccccc1 (stereo not drawn)
category.label: label 0
